Target: Gamma-aminobutyric acid receptor subunit alpha-1 (Rattus norvegicus, UniProt P62813)
Experiment: Agonist activity at GABAA receptor in Sprague-Dawley rat forebrain membranes assessed as enhancement of [3H]muscimol binding after 2 hrs by radiometric analysis
endpoint_label: EC50 (µM)
Respond with the bare value in µM.

Note to self: EC50 recorded for CCCCNC(=O)c1cc(-c2ccc(F)cc2F)ccc1O was 15

---

Target: Gamma-aminobutyric acid receptor subunit alpha-1/beta-3/gamma-2 (Rattus norvegicus, UniProt P18508+P62813+P63079)
Sequence (P18508 whole entry): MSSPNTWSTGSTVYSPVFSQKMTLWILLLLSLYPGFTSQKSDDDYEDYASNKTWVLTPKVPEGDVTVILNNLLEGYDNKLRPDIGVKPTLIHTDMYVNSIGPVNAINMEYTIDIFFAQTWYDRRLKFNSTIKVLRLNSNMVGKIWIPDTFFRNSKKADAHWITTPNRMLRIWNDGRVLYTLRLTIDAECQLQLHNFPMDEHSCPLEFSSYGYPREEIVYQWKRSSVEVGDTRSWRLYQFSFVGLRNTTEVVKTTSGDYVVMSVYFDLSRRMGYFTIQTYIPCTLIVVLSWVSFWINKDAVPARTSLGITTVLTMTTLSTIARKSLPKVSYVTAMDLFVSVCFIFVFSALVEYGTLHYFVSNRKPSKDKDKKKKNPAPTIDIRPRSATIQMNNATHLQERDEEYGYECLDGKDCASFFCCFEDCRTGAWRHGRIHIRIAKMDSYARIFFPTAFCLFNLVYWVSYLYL
Sequence (P62813 whole entry): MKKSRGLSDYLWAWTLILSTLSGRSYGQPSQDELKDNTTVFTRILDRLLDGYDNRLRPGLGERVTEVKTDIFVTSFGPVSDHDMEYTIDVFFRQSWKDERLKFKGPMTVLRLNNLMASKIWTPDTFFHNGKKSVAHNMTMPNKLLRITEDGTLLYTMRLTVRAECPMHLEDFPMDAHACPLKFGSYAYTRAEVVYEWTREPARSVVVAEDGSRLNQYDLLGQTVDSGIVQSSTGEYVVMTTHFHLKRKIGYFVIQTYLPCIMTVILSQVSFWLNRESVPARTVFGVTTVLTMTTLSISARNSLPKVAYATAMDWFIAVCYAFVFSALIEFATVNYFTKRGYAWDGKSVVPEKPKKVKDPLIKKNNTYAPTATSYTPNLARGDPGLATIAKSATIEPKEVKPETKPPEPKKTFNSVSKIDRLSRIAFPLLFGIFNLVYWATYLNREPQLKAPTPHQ
Sequence (P63079 whole entry): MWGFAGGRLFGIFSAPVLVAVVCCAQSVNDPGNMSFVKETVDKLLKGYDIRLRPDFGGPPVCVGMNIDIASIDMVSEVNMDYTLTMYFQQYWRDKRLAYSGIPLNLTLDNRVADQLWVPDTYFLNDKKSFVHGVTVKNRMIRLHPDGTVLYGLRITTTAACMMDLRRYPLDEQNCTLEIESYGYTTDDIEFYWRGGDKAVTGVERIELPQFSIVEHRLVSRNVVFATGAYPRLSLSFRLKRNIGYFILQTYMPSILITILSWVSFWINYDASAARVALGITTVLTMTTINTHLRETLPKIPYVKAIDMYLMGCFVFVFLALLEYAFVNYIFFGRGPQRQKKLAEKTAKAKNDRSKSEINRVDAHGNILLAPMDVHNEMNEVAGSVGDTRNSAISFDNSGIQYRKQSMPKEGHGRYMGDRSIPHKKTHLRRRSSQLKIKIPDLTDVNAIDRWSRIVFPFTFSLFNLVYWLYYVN
Test: Displacement of [3H]-flunitrazepam from recombinant rat GABAA receptor alpha1beta3gamma2S expressed in HEK293 cell membranes after 90 mins by liquid scintillation counting method
endpoint_label: Ki (nM)
Enter your answer as a number in nM; do not include the unit.

Memo: C#Cc1ccc2c(c1)C(c1ccccc1F)=N[C@H](C)c1c(C(=O)NC)ncn1-2 , reported Ki: 850

---

Molecular target: 5-hydroxytryptamine receptor 3A (Homo sapiens)
Sequence (P46098 whole entry): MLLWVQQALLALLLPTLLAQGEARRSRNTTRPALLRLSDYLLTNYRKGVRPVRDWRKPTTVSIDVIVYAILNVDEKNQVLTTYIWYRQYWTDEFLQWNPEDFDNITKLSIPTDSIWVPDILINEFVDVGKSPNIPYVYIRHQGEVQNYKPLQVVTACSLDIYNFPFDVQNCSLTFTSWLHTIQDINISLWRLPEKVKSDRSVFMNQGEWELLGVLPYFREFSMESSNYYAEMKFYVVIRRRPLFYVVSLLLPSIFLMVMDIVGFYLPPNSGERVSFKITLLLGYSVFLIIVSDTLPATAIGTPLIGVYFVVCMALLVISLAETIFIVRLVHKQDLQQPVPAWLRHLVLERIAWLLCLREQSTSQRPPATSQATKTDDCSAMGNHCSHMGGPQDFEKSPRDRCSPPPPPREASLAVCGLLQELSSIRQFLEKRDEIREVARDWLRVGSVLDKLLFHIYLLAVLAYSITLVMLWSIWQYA
Assay: Inhibition of 5-HT3 receptor (unknown origin)
endpoint_label: IC50

Reported IC50 of C[C@H]1[C@H]2C(=O)N(C)c3ccncc3[C@H]2CN1S(=O)(=O)c1ccc2c(c1)OCO2 : > 30 µM

---

Biological target: Gamma-aminobutyric acid receptor subunit alpha-4/beta-2/delta (Homo sapiens, UniProt O14764+P47870+P48169)
Assay: Positive allosteric modulation of GABAA receptor alpha4beta2delta (unknown origin)
endpoint_label: EC50 (nM)
Hi! Could you send only the number? It should be in nM, unit omitted.

What the record says about C[C@@]1(O)CC[C@H]2[C@H](CC[C@@H]3[C@@H]2CC[C@]2(C)[C@@H](C(=O)Cn4cc(C#N)cn4)CC[C@@H]32)C1 : EC50 is 163

---

Target: Nicotinic acetylcholine receptor alpha2/beta2 (Homo sapiens, UniProt P02708+P17787)
Assay: Positive allosteric modulation of human alpha2beta2 nAChR expressed in HEK cells preincubated for 15 mins followed by dihydro-beta-erythroidine hydrobromide addition by fluorometric analysis
endpoint_label: EC50
For clarity, give the value followed by its unit.

The reported value for O=C(N[C@@H]1CCCNC1)c1cc2cccc(Br)c2s1 in terms of EC50 is 660 nM

---

Molecular target: 5-hydroxytryptamine receptor 3A (Homo sapiens)
Test: Agonist activity at 5-HT3 receptor (unknown origin)
pEC50: −log10 of the molar value.
endpoint_label: pEC50

What the record says about C[C@H]1[C@H]2C(=O)N(C)c3ccncc3[C@H]2CN1S(=O)(=O)c1ccc2c(c1)OCO2 : pEC50 is < 4.60

---

Molecular target: 5-hydroxytryptamine receptor 3A (Cavia porcellus)
Sequence (O70212 whole entry): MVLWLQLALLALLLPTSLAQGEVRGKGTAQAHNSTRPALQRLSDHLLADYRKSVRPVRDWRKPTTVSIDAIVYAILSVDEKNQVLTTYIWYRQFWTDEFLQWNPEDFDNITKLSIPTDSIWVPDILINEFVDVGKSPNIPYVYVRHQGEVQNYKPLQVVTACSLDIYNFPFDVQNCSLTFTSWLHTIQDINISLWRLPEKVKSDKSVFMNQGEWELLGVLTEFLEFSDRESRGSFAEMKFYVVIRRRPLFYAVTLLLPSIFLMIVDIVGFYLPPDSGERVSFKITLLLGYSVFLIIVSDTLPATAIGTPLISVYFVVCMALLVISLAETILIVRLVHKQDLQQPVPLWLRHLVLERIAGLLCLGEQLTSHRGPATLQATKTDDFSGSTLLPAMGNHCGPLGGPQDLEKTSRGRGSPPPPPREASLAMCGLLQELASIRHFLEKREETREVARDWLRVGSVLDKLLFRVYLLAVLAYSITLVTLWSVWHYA
Assay: Antagonist activity 5-HT3A receptor in guinea pig ileum assessed as inhibition of 2-methyl-5-HT induced response preincubated for 10 mins followed by agonist addition
Settings: read-out: pA2 (converted)
endpoint_label: Kb (nM)
Write the value in nM as a bare number.

# value of Kb, 5-hydroxytryptamine receptor 3A (Cavia porcellus), item CCCCNC(=O)c1nc2ccccc2nc1OC = 20

Readout Kb for COc1nc2ccccc2nc1C(=O)Nc1nc2ccccc2s1 , test system 5-hydroxytryptamine receptor 3A (Cavia porcellus), was 39.8

The reported Kb value, 5-hydroxytryptamine receptor 3A (Cavia porcellus), for COc1nc2ccccc2nc1C(=O)Nc1ccc(C)cc1 reads 50.1

Entry O=C(c1cnc2ccccc2n1)N1CCN(Cc2ccccc2)CC1 : Kb on 5-hydroxytryptamine receptor 3A (Cavia porcellus) = 15.8

---

Target: Gamma-aminobutyric acid receptor subunit alpha-2/beta-3/gamma-2 (Rattus norvegicus, UniProt P18508+P23576+P63079)
Sequence (P18508 whole entry): as the sequence (P18508 whole entry) above
Sequence (P23576 whole entry): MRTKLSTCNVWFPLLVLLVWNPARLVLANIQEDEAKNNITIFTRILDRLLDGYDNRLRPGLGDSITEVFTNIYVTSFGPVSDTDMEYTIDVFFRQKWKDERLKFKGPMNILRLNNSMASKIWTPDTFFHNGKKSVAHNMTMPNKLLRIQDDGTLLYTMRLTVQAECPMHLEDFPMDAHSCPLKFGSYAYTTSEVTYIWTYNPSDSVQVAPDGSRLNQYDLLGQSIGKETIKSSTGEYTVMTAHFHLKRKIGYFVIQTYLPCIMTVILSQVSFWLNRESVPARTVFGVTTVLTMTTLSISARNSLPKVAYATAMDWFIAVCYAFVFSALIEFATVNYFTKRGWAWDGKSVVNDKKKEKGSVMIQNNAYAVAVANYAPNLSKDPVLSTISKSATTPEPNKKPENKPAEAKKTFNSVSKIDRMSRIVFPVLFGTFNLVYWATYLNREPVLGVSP
Sequence (P63079 whole entry): as the sequence (P63079 whole entry) above
Assay: Displacement of [3H]-flunitrazepam from recombinant rat GABAA receptor alpha2beta3gamma2S expressed in HEK293 cell membranes after 90 mins by liquid scintillation counting method
endpoint_label: Ki (nM)
# unit: nM | format: bare number

What the record says about C#Cc1ccc2c(c1)C(c1ccccc1F)=N[C@H](C)c1c(C(=O)NC)ncn1-2 : Ki is 360

---

Target: Neuronal acetylcholine receptor subunit alpha-7 (Rattus norvegicus, UniProt Q05941)
Sequence (Q05941 whole entry): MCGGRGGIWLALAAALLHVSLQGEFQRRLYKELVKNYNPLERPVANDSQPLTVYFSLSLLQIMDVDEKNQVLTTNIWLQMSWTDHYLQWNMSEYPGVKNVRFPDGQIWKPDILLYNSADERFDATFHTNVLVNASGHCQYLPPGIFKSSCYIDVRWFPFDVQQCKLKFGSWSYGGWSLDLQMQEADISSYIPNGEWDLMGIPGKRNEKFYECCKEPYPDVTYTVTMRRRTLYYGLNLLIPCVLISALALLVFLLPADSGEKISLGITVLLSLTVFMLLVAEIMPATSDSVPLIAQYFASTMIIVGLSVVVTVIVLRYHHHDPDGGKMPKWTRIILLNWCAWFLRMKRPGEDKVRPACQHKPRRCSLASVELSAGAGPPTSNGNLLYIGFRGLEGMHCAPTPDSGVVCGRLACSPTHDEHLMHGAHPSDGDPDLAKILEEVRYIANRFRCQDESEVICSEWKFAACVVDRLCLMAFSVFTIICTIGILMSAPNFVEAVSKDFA
Test: Agonist activity at rat brain membrane alpha7 nAChR
endpoint_label: IC50 (µM)
Write the number in µM without appending the unit.

Entry under test: O=C(N[C@H]1CN2CCC1CC2)c1ccc2ncccc2c1 . Its IC50 was 10

---

Target: GABA-A receptor; alpha-1/beta-2/gamma-2 (Homo sapiens, UniProt P14867+P18507+P47870)
Sequence (P14867 whole entry, one chain of several): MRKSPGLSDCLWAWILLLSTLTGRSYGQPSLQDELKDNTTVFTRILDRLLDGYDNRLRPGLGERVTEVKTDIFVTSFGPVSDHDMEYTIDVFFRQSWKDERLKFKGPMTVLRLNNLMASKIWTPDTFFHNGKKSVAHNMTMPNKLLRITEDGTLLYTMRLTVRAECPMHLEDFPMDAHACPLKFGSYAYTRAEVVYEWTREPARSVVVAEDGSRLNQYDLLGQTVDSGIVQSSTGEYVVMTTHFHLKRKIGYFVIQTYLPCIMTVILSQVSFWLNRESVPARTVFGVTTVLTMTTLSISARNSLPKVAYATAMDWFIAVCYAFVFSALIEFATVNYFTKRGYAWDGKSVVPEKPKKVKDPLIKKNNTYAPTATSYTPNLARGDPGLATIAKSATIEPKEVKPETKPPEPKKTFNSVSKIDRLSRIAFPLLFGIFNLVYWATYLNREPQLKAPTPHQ
Test: Positive allosteric modulation of GABAA receptor alpha1beta2gamma2 (unknown origin)
Type: protein-complex assay
endpoint_label: EC50
Report field: quantity (unit follows the number).

Query C[C@@]1(O)CC[C@H]2[C@H](CC[C@@H]3[C@@H]2CC[C@]2(C)[C@@H](C(=O)Cn4cc(C#N)cn4)CC[C@@H]32)C1 yields EC50 of 374 nM

---

Target: GABA-A receptor; alpha-1/beta-2/gamma-2 (Homo sapiens, UniProt P14867+P18507+P47870)
Experiment: Agonist activity at recombinant human GABAA receptor alpha1beta2gamma2L expressed in Xenopus laevis oocytes incubated for 30 secs by electrophysiological method
Assay type: cell-based
endpoint_label: EC50 (nM)
Express the result in nM but write the number alone.

# Oc1c(Br)cc(Br)cc1-c1cc(Br)cc(Br)c1O [BROMOPHENE] with GABA-A receptor; alpha-1/beta-2/gamma-2 (Homo sapiens, UniProt P14867+P18507+P47870): EC50 is 720

---

Target: GABA A receptor alpha-4/beta-3/gamma-2 (Homo sapiens, UniProt P18507+P28472+P48169)
Test: Displacement of [3H][…] from human GABAA receptor alpha4beta3gamma2 expressed in LTK cells […]
endpoint_label: Ki

// sample COc1ccc(-n2nc3c4cc(Cl)ccc4[nH]cc-3c2=O)cc1 , its Ki was > 10 µM

---

As shown below, each of these compounds has a reported pEC50 value.
Target: Glycine receptor (alpha-1/beta) (Homo sapiens, UniProt P23415+P48167)
Sequence (P23415 whole entry): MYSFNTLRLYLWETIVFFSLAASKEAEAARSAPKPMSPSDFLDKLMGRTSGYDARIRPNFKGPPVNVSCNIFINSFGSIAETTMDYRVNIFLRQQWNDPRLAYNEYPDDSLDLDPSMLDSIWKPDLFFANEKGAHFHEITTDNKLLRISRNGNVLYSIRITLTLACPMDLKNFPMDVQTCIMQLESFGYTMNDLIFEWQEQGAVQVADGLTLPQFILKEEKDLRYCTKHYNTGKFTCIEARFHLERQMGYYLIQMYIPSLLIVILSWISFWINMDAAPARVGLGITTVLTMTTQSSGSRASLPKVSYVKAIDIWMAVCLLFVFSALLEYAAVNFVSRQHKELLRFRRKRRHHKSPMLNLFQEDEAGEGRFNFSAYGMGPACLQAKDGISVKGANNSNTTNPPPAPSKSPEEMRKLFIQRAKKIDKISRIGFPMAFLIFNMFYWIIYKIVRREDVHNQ
Sequence (P48167 whole entry): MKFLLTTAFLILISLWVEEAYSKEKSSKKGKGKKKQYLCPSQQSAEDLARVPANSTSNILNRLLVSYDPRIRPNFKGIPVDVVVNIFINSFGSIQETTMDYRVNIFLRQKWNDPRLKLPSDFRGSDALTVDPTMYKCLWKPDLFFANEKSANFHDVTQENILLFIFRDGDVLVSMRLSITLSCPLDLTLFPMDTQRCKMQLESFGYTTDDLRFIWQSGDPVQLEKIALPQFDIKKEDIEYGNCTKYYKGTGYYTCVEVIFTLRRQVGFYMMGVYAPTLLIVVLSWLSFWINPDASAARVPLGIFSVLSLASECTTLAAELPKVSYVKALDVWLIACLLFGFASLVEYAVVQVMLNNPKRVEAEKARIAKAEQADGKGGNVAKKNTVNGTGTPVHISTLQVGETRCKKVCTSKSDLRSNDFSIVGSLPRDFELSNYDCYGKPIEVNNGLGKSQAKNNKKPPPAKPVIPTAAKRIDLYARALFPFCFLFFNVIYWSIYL
Assay: Positive allosteric modulation of human glycine alpha1beta receptor expressed in HEK293T cells assessed as glycine-induced increase in current response after 18 to 24 hrs by membrane potential blue dye based FLIPR assay
Scale explanation: pEC50 corresponds to minus log10 of a concentration expressed in moles per litre.

compound	pEC50
CN1C(=O)[C@@H]2CN(S(=O)(=O)c3ccc4occc4c3)C[C@@H]2c2cnccc21	6.77

Shifting focus to the compound that follows.
C[C@H]1[C@H]2C(=O)N(C)c3ccncc3[C@H]2CN1S(=O)(=O)c1ccc2c(c1)OCO2 on Glycine receptor (alpha-1/beta) (Homo sapiens, UniProt P23415+P48167) gives pEC50 = 7.80

---

Molecular target: GABA A receptor alpha-2/beta-2/gamma-2 (Homo sapiens, UniProt P18507+P47869+P47870)
Sequence (P47870 whole entry): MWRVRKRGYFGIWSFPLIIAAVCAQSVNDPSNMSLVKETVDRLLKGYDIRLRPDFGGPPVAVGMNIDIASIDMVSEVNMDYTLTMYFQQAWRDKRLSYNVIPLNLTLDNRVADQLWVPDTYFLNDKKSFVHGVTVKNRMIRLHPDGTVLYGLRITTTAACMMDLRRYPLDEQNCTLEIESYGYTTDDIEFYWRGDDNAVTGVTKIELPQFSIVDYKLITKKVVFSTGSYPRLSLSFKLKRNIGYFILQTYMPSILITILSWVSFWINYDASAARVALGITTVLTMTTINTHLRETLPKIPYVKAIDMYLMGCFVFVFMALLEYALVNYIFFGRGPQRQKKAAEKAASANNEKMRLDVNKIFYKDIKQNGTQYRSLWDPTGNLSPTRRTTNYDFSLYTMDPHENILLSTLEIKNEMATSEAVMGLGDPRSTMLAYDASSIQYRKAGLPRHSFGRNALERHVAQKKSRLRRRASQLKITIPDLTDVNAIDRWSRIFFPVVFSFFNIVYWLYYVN
Sequence (P18507 whole entry): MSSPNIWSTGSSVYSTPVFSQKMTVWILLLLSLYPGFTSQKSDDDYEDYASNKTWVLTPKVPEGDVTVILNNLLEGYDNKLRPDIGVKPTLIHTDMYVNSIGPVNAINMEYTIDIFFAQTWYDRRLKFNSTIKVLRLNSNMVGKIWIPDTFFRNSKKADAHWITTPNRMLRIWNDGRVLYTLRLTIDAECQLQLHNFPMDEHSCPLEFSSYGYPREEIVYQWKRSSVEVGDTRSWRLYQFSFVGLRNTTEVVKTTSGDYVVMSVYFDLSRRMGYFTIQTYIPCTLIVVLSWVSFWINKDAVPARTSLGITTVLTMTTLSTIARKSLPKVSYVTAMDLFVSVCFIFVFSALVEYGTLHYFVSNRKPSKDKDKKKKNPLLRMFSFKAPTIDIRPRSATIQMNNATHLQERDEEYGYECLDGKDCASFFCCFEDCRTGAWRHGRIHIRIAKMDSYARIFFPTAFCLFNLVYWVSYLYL
Sequence (P47869 whole entry): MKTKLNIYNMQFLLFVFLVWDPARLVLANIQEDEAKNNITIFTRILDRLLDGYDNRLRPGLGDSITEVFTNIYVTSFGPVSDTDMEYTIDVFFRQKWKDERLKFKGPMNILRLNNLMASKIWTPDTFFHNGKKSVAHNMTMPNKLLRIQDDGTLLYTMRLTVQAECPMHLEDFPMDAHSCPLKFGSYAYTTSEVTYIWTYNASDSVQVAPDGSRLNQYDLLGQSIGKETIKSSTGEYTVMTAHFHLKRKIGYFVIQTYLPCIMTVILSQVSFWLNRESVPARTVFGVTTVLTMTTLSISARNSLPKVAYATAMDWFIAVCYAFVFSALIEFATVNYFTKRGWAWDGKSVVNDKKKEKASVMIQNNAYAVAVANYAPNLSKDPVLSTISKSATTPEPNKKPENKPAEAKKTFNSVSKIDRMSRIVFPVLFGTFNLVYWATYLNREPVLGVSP
Experiment: Agonist activity at recombinant human GABAA receptor alpha2beta2gamma2L expressed in Xenopus laevis oocytes incubated for 30 secs by electrophysiological method
Type: cell-based
endpoint_label: EC50 (µM)
Output spec: scalar in µM, unitless text.

// compound Oc1c(Br)cc(Br)cc1-c1cc(Br)cc(Br)c1O , assay GABA A receptor alpha-2/beta-2/gamma-2 (Homo sapiens, UniProt P18507+P47869+P47870), EC50 value: 1.08
